experiment notes: Solubility in acetone
Assay type: physicochemical
run parameters: acetone added until no undissolved dye remained
Description: Solubility of the dyes in acetone was determined by weighing a small amount of dye into a jar and adding small aliquots of acetone until no undissolved dye remained.

>  <compound>
C=CC(=O)OCCn1c(=O)c2ccc3sc4ccccc4c4ccc(c1=O)c2c34 [AD-7]

>  <Solubility of dye in acetone>
0.83 g acetone/mg of dye

$$$$
>  <compound>
C=CC(=O)OCCOc1cc2c3ccccc3c(=O)c3ccc4c5ccccc5sc1c4c32 [AD-4]

>  <Solubility of dye in acetone>
11.0 g acetone/mg of dye

$$$$
>  <compound>
C=CC(=O)OCCOc1cc2c3ccccc3c(=O)c3ccc4c5ccccc5sc1c4c32 [AD-5]

>  <Solubility of dye in acetone>
0.65 g acetone/mg of dye

$$$$
>  <compound>
C=CC(=O)OCCn1c(=O)c2ccc3sc4ccccc4c4ccc(c1=O)c2c34 [AD-6]

>  <Solubility of dye in acetone>
11.6 g acetone/mg of dye

$$$$
>  <compound>
C=CC(=O)OCCn1c(=O)c2ccc3sc4ccccc4c4ccc(c1=O)c2c34 [AD-1]

>  <Solubility of dye in acetone>
0.83 g acetone/mg of dye

$$$$
